Source listed as patent US9862730B2.

# Tested On: PAR4 (Homo sapiens (Human), UniProt Q96RI0)
# Sequence (Q96RI0 18-385): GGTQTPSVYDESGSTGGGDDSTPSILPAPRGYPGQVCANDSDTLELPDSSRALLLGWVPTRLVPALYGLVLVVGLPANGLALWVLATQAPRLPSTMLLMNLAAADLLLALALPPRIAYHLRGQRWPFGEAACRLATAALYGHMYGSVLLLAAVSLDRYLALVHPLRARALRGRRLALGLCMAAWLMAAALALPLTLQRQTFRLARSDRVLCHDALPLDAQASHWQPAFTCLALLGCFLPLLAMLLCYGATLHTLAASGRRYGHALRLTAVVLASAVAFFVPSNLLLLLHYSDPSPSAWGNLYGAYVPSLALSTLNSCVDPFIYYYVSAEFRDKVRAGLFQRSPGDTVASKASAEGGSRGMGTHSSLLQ
# Assay Summary: FLIPR assay in PAR4-expressing HEK293 cells (PAR4 antagonist activity, calcium mobilization)
# Format: cell-based
# Particulars: FLIPR assay as described in Example A
pIC50: −log10 of the molar value.
Rule: pIC50 under 8 gives -1, otherwise 1.

>>> print(df.to_string())
                                   compound                                 tested_on  discrete_label
0  CCOc1ccc2nc(-c3cn4nc(SC)sc4n3)oc2c1 [Example 160]  PAR4 (Homo sapiens (Human), UniProt Q96RI0)              -1
1  COc1cc(OCc2cccc(OCc3ccc(F)c(F)c3F)c2)c2cc(-c3cn4nc(OC)sc4n3)oc2c1 [Example 325]  PAR4 (Homo sapiens (Human), UniProt Q96RI0)               1
2  COc1cccc2sc(-c3cn4nc(SC)sc4n3)nc12 [Example 6]  PAR4 (Homo sapiens (Human), UniProt Q96RI0)              -1

Now turn to the next compound.
Hi, just wondering whether CCc1nn2cc(-c3nc4cc(F)c(F)cc4o3)nc2s1 [Example 38] shows pIC50 of 8 or higher.
-1
